Target System: EP300 (Homo sapiens)
Sequence (Q09472 1049-1156 limits assumed): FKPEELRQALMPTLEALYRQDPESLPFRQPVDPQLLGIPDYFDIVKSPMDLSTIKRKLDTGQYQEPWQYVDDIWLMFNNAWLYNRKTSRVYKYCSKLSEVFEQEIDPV
Test Method Notes: BROMOscan ligand-binding assay
Measurement Parameters: BROMOscan Gene Symbol EP300
Experimental Readout: pKd
Lab note: report pKd as minus log10 of the concentration in molar units, number only.

Cc1noc(C)c1-c1ccc2c(c1)nc(CCc1ccccc1)n2CCN1CCOCC1 :: 7.04

**Q:** Identify pKd associated with the compound COc1ccc(CCc2nc3cc(-c4c(C)noc4C)ccc3n2CCN2CCOCC2)cc1
**A:** 7.36

* * *

Target System: MLL3 (pentameric) (Homo sapiens, UniProt Q8NEZ4)
Construct: purchased DiscoverX BROMOscan (bromodomains); SGC in-house methyltransferase panel
Test Method Notes: Methyl transferase scintillation proximity assay
Format: biochemical
Measurement Parameters: average of two measurements, read-out: MTases Inhibition (%)
Experimental Readout: inhibition at 10 µM (%)
The answer is to be given in %; state only the numeric part.

CO[C@H]1CNC[C@@H](OCC2CCC(F)(F)CC2)[C@@H]1Nc1ncc(-c2cncc(C)c2)c2cc(C)c(=O)[nH]c12 [GSK8814] :: 0
Cc1c(NC(=O)c2cc(C(N)=O)nc3cc(F)ccc23)c(C(F)(F)F)nn1Cc1ccc(C#N)cc1 [BAY-876] :: 0

**Q:** Look up and report measured inhibition at 10 µM for this entry: Cc1nnc2c3ccccc3c(N[C@@H](C)[C@H](c3ccccc3)N(C)C)nn12 [L-Moses]
**A:** 1
